B1: TRIM39 (parent)
chain: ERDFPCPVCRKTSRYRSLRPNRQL

Variants of: B1
assay_summary: protein stability index of a GFP-peptide fusion (GPS, HEK-293T) (PSI 1-6); higher = more stable;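 also: lentivirally expressed fusions sorted by FACS into six bins by GFP to DsRed ratio, PSI derived from sequencing read proportions per bin multiplied by bin number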
condition_label: c terminus: a fixed tail appended
Binary classification by protein stability index, with 2 as an inclusive lower bound for yes; all other cases are no.

P5K yes

// query Is protein stability index at least 2? Consider K11E
// result no

// query Reported protein stability index at or above 2? R14P
// result no

// query Kindly determine if protein stability index recorded for E1P is above or exactly 2.
// result yes

// query Does P20L have a reported protein stability index of at least 2?
// result no

// query Please indicate if the recorded protein stability index for R10D meets or exceeds 2.
// result yes
